Test system: HepG2 cells
Test: HepG2 cytotoxicity assay
Settings: HepG2 cytotoxicity listed with the Pb ODA data set (this manuscript)
measurement_type: Pb ODA (this manuscript) HepG2 cytoxicity (µM)
Record the value in µM, omitting the unit from your answer.

Use the examples below as a reference point.
>  <molecule>
Cc1ccc2nc(/N=C(\N)NC(=O)NC3CCCCC3)nc(C)c2c1

>  <assay_system>
HepG2 cells

>  <number>
57.54

$$$$
>  <molecule>
CC1CN(Cc2ccc(-c3ccc(-c4nc5cc(F)ccc5[nH]4)cc3)cc2)CC(C)O1.O=C(O)C(F)(F)F (centres unmarked)

>  <assay_system>
HepG2 cells

>  <number>
24.55

$$$$
>  <molecule>
CC(=O)Oc1c(Cl)c(C)nc(C)c1-c1ccc(Oc2ccc(Cl)cc2)cc1

>  <assay_system>
HepG2 cells

>  <number>
2.63

$$$$
>  <molecule>
Cc1[nH]c(C)c([N+](=O)[O-])c(=O)c1-c1ccc(Oc2ccccc2)cc1

>  <assay_system>
HepG2 cells

>  <number>
100.00

$$$$
>  <molecule>
COc1ccc2nccc([C@@H](O)CN3CCC(NC(=O)c4cc5c(F)cc(F)cc5[nH]4)CC3)c2n1

>  <assay_system>
HepG2 cells

>  <number>
10.47

$$$$
>  <molecule>
CCCCCCCc1cc(=O)c2ccccc2[nH]1

>  <assay_system>
HepG2 cells

>  <number>
20.65

$$$$
>  <molecule>
CCc1c(C)nc(-n2nc(C)cc2NC(=O)c2ccc(OC)cc2OC)[nH]c1=O

>  <assay_system>
HepG2 cells

>  <number>
10.00

$$$$

Let us move to another entry and its Pb ODA (this manuscript) HepG2 cytoxicity.
[in] Entry `Cc1nc(NC2=NCN(CCCN3CCOCC3)CN2)nc2c(C)cccc12` : reported Pb ODA (this manuscript) HepG2 cytoxicity = ?
[out] 100.00
